Origin of measurements: patent US20220112288A1

target: T1, huCD4-HIS (human, UniProt P01730 26-390, limits assumed); test: ELISA binning, competitor Ibalizumab; 100 ng/mL huCD4-HIS, anti-HIS HRP detection; background 45, max binding 3000000
T1 construct: the ELISA binning is not described in the text of this stretch

BINDER | Ibalizumab ELISA binning signal
75110_04G16A (antibody, V domains shown, Tested as non-clonal AlivaMab Mouse Kappa hybridoma supernatant: human variable domains and human kappa, mouse Fc) VH: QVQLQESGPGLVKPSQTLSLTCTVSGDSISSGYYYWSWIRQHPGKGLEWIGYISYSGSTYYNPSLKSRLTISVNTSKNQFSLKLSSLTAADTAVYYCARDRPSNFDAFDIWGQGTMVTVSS VL: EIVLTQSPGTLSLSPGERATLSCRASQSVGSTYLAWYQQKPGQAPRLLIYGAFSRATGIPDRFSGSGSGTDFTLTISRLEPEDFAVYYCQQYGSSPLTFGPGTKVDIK | 52600
75110_01G11A (antibody, IgG1, V domains shown, Tested as non-clonal AlivaMab Mouse Kappa hybridoma supernatant: human variable domains and human kappa, mouse Fc) VH: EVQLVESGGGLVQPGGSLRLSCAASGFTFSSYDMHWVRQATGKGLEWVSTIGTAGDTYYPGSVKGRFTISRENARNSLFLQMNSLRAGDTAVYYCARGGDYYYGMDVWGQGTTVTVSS VL: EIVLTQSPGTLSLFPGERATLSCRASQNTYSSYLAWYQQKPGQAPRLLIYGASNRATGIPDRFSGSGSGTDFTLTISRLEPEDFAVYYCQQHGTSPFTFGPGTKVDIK | 495000
